# System: rice (Oryza sativa)
# Assay method text: Test C flooded paddy test: rice
# Type: in vivo
# Experimental context: Flood (flooded paddy test), 125 g ai/ha; visual rating after 13 to 15 days, scale 0 to 100 (0 no effect, 100 complete control)
Experimental endpoint: Plant response rating, Rice
Answers are plain numbers.

Guide cases for Plant response rating, Rice, answers given:
Cc1nn(-c2ccc(C(F)(F)F)cc2)nc1Oc1cccc(Cl)c1
20
Cc1nn(-c2nc(Cl)ns2)nc1C(=O)c1cccc(C(F)(F)F)c1
0
Cc1nn(-c2ccc(F)cc2)nc1Oc1cc(C(F)(F)F)nn1C
10
COc1nn(-c2ccc(C(F)(F)F)cc2)nc1Cn1cnc(C(F)(F)F)n1
0
Cc1nn(-c2ccc(C(F)(F)F)cn2)nc1Oc1cccc(C(F)(F)F)c1
15

Can you give me Plant response rating, Rice for all of these, one by one?
1. COc1nn(-c2ccc(C(F)(F)F)cc2)nc1Cn1nc(C(F)(F)F)cc1C(F)(F)F
2. Cc1nn(-c2ccc(F)cc2)nc1Cn1cc(C(F)(F)F)nc1Cl
3. Cc1nn(-c2ccc(C(F)(F)F)cc2)nc1Cn1ccc(C(F)(F)F)n1
4. Cc1nn(-c2ccc(C(F)(F)F)cn2)nc1Cn1cnc(C(F)(F)F)n1

[0, 0, 25, 0]
